The measurements presented in this section are drawn from patent US6737383B1.

tested on: pigweed; assay: Test B pre/postemergence pigweed; type: in vivo, Amaranthus retroflexus; details: Rate 62 g/ha, Postemergence; scale of 0 to 10 where 0 is no effect and 10 is complete control
EXPERIMENTAL_ENDPOINT: Redroot pigweed plant response rating
Simply state the number, no unit and no words.

Consider the following illustrative entries.
# MOLECULE, STUDY_TARGET, EXPERIMENTAL_ENDPOINT, VALUE_REPORTED
rows = [
    ("Cc1nnsc1Cn1c(=O)on(C(=O)N(c2ccccc2)C(C)C)c1=O", "pigweed", "Redroot pigweed plant response rating", 0),
    ("CC(C)N(C(=O)n1oc(=O)n([C@H](C)c2ccccc2)c1=O)c1ccc(F)cc1", "pigweed", "Redroot pigweed plant response rating", 0),
    ("Cc1nc(C)c(Cn2c(=O)on(C(=O)N(c3ccc(F)cc3)C(C)C)c2=O)s1", "pigweed", "Redroot pigweed plant response rating", 2),
    ("Cc1nsc(Cl)c1Cn1c(=O)on(C(=O)N(c2ccccc2)C(C)C)c1=O", "pigweed", "Redroot pigweed plant response rating", 0),
]

Can you share its Redroot pigweed plant response rating? I mean this molecule: `CC(C)N(C(=O)n1oc(=O)n(Cc2ccco2)c1=O)c1ccc(F)cc1F`
0

Can you share its Redroot pigweed plant response rating? I mean this molecule: `CC(=O)Cn1c(=O)on(C(=O)N(c2ccc(F)cc2)C(C)C)c1=O`
0
